Listed variants paired with reported self-cleavage
B1: OR4K15 (parent)
chain: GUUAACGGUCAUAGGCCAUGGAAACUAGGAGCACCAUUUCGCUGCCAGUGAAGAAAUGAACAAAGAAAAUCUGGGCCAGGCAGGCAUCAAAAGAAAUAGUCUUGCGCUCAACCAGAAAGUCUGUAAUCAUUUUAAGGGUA

# Variants of: B1
# ASSAY OVERVIEW: self-cleavage, relative activity (ratio to wild type); higher = more cleavage; in vitro, sequencing; the parent is a self-cleaving ribozyme

C17U A64G : 0.65
G14C U103C : 1.13
A4U U57C : 0.65
A47G A91G : 0.69

Now for a further variant.
Lab book: self-cleavage of A56G A86G noted as 0.8

Sourced from the RNAGym collection of RNA variant scans (doi:10.7554/elife.90254)
